FYI, the data here is from ChEMBL document CHEMBL1201862.

Exercise: state measured EC50 for each of the molecules provided.
# target_or_system: Short transient receptor potential channel 4 (Mus musculus)
# Sequence (Q9QUQ5 whole entry): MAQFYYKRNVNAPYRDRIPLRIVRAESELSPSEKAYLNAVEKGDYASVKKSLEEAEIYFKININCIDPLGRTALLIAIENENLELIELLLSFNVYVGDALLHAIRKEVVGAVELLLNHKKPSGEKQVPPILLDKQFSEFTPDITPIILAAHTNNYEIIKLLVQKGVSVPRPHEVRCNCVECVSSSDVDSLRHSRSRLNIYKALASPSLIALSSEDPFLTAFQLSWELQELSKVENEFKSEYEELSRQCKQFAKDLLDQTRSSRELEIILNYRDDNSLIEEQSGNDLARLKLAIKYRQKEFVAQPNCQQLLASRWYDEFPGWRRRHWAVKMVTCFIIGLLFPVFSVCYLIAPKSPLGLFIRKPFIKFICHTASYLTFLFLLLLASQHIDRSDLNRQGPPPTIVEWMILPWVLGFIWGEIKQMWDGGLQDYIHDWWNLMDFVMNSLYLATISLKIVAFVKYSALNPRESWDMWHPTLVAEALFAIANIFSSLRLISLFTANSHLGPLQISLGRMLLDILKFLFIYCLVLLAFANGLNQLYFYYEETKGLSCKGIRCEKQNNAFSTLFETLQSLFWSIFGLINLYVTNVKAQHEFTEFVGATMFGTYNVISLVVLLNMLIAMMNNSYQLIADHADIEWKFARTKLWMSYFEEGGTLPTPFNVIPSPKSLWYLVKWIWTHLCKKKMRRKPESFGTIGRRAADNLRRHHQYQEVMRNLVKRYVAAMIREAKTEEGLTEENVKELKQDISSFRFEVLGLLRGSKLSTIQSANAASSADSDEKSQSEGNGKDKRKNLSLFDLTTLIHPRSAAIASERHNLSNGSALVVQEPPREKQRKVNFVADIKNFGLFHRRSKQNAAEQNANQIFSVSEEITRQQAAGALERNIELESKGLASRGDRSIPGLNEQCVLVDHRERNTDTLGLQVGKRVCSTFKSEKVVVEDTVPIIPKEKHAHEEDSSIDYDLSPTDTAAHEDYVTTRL
# assay_explanation: block of DAMGO-driven TRPC4 calcium entry – cell-based, HEK293 TRPC4/mu-opioid, Fluo-4 calcium, dose response (AID 434942);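 further: potency of inhibitors blocking the TRPC4 calcium response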
# Assay type: functional
Activity calls are given as the source filed them.

COc1cccc(/C=C2\SC(=S)N(NS(=O)(=O)c3ccc(C)cc3)C2=O)c1OC	8.41 µM (active)

Hello, I would appreciate it if you could give EC50 for each entry below.
1. Cc1ccccc1OCCn1c(C)nc2ccccc21
2. c1ccc(CN2CCN(Cc3c[nH]c4ccccc34)CC2)cc1
3. CC(C)c1ccc(S(=O)(=O)/N=C2\C=C(NS(=O)(=O)c3ccccc3)C(=O)c3ccccc32)cc1

Given back:
["1.19 µM (active)", "5.96 µM (active)", "7.5 µM (active)"]

* * *

# target_or_system: FAD-linked sulfhydryl oxidase ALR (Homo sapiens, UniProt P55789)
# Sequence (P55789 whole entry): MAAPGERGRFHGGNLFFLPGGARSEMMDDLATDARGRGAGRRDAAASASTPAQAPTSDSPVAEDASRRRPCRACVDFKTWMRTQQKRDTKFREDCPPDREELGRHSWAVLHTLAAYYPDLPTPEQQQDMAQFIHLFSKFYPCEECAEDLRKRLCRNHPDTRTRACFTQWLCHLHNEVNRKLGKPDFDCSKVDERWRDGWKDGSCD
# assay_explanation: ALR-catalysed DTT oxidation blockers – biochemical, H2O2 detection, luminescence, cherry-pick, dose response (AID 493248)
Calls of active or inactive are those of the source.
attribute_measured: AC50

COc1ccc2[nH]c(N3CCCC3)nc2c1	6110 nM (active)
CCNc1ccc(S(=O)(=O)N(C)C)cc1NCC(=O)Nc1ccccc1Cl	5580 nM (active)

For every record below, what is its AC50?
1. COc1ccc(Cn2c(S)nnc2-c2ccc(OC)cc2)cc1
2. CN(C)S(=O)(=O)c1cccc(-c2cn3cccnc3n2)c1
3. COc1ccc(NC2CCCN(C(=O)CCc3ccncc3)C2)cc1OC (stereo not drawn)
4. COc1c(O)cc2oc(-c3ccc(O)cc3)cc(=O)c2c1O

Given back:
1: 9 nM (active); 2: 278 nM (active); 3: 4750 nM (active); 4: 572 nM (active)

Record AC50 for all entries; do not skip any.
1. CN(C)S(=O)(=O)c1ccc(C(=O)N2CCN=C2SCc2cccnc2)cc1
2. COc1cccc(/C=C2\SC(=S)N(NS(=O)(=O)c3ccc(C)cc3)C2=O)c1OC
3. CC(=O)Nc1ccc(S(=O)(=O)N2CCN=C2SCc2ccc([N+](=O)[O-])cc2)cc1
4. Cc1nc(C#N)c(N/N=C/c2cccc(Cl)c2)o1

Given back:
1: 17 nM (active); 2: 9050 nM (active); 3: 252 nM (active); 4: 1660 nM (active)
